Test system: U937 cells (human monocytic cell line)
test: BzATP-induced IL-1β secretion inhibition in PMA-differentiated U937 cells
Assay type: cell-based
experimentalSetup: U-937, U937 cells differentiated with PMA, read-out: IL-1β production inhibition grade (IC50)
pIC50: −log10 of the molar value.
Please respond with reported pIC50 for every item in the list.

query: Let me know recorded pIC50 for C[C@H](CCC(=O)N[C@@H](C)CS(=O)(=O)O)[C@H]1CC[C@H]2[C@@H]3[C@H](O)C[C@@H]4C[C@H](O)CC[C@]4(C)[C@H]3C[C@H](O)[C@]12C , thanks.
result: ≤ 6.70

query: Let me know recorded pIC50 for CC[C@H]1[C@@H](O)[C@@H]2[C@H](C[C@H](O)[C@]3(C)[C@@H]([C@H](C)CCC(=O)N(CCO)CCS(=O)(=O)O)CC[C@@H]23)[C@@]2(C)CC[C@@H](O)C[C@@H]12 , thanks.
result: > 7.30

query: Let me know recorded pIC50 for C[C@H](CCC(=O)NC(C)(C)CS(=O)(=O)O)[C@H]1CC[C@H]2[C@@H]3CC[C@@H]4C[C@H](O)CC[C@]4(C)[C@H]3C[C@H](O)[C@]12C , thanks.
result: 7.00 to 7.30

query: Let me know recorded pIC50 for C[C@H](CCC(=O)N1CCC[C@H](S(=O)(=O)O)C1)[C@H]1CC[C@H]2[C@@H]3CC[C@@H]4C[C@H](O)CC[C@]4(C)[C@H]3C[C@H](O)[C@]12C , thanks.
result: > 7.30

query: Let me know recorded pIC50 for CC[C@H]1[C@@H](O)[C@@H]2[C@H](CC[C@]3(C)[C@@H]([C@H](C)CCC(=O)N(CCS(=O)(=O)O)Cc4cccnc4)CC[C@@H]23)[C@@]2(C)CC[C@@H](O)C[C@@H]12 , thanks.
result: 7.00 to 7.30

query: Let me know recorded pIC50 for C[C@H](CCC(=O)N(CCS(=O)(=O)O)C1CCOCC1)[C@H]1CC[C@H]2[C@@H]3[C@H](O)C[C@@H]4C[C@H](O)CC[C@]4(C)[C@H]3C[C@H](O)[C@]12C , thanks.
result: 7.00 to 7.30

query: Let me know recorded pIC50 for CC[C@H]1[C@@H](O)[C@@H]2[C@H](CC[C@]3(C)[C@@H]([C@H](C)CCC(=O)NC(C)(C)CS(=O)(=O)O)CC[C@@H]23)[C@@]2(C)CC[C@@H](O)C[C@@H]12 , thanks.
result: > 7.30

query: Let me know recorded pIC50 for C[C@H](CCC(=O)Nc1ccc(S(=O)(=O)O)cc1)[C@H]1CC[C@H]2[C@@H]3CC[C@@H]4C[C@H](O)CC[C@]4(C)[C@H]3CC[C@]12C , thanks.
result: > 7.30

query: Let me know recorded pIC50 for C[C@H](CCC(=O)N1CC[C@H](S(=O)(=O)O)C1)[C@H]1CC[C@H]2[C@@H]3CC[C@@H]4C[C@H](O)CC[C@]4(C)[C@H]3C[C@H](O)[C@]12C , thanks.
result: 7.00 to 7.30

query: Let me know recorded pIC50 for C[C@H](CS(=O)(=O)O)NC(=O)CC[C@@H](C)[C@H]1CC[C@H]2[C@@H]3[C@H](O)C[C@@H]4C[C@H](O)CC[C@]4(C)[C@H]3C[C@H](O)[C@]12C , thanks.
result: 7.00 to 7.30

query: Let me know recorded pIC50 for C[C@H](CCC(=O)N(CCS(=O)(=O)O)Cc1ccccc1)[C@H]1CC[C@H]2[C@@H]3CC[C@@H]4C[C@H](O)CC[C@]4(C)[C@H]3C[C@H](O)[C@]12C , thanks.
result: 6.70 to 7.00

query: Let me know recorded pIC50 for CC(C)C[C@H](CS(=O)(=O)O)NC(=O)CC[C@@H](C)[C@H]1CC[C@H]2[C@@H]3CC[C@@H]4C[C@H](O)CC[C@]4(C)[C@H]3C[C@H](O)[C@]12C , thanks.
result: 6.70 to 7.00

query: Let me know recorded pIC50 for CC[C@H]1[C@@H](O)[C@@H]2[C@H](CC[C@]3(C)[C@@H]([C@H](C)CCC(=O)NC[C@H](C)S(=O)(=O)O)CC[C@@H]23)[C@@]2(C)CC[C@@H](O)C[C@@H]12 , thanks.
result: ≤ 6.70

query: Let me know recorded pIC50 for CC[C@H]1[C@@H](O)[C@@H]2[C@H](C[C@H](O)[C@]3(C)[C@@H]([C@H](C)CCC(=O)N[C@H](Cc4ccccc4)CS(=O)(=O)O)CC[C@@H]23)[C@@]2(C)CC[C@@H](O)C[C@@H]12 , thanks.
result: 7.00 to 7.30

query: Let me know recorded pIC50 for CC(C)C[C@H](CS(=O)(=O)O)NC(=O)CC[C@@H](C)[C@H]1CC[C@H]2[C@@H]3[C@H](O)C[C@@H]4C[C@H](O)CC[C@]4(C)[C@H]3C[C@H](O)[C@]12C , thanks.
result: 7.00 to 7.30

query: Let me know recorded pIC50 for C[C@H](CCC(=O)NC[C@@H](C)S(=O)(=O)O)[C@H]1CC[C@H]2[C@@H]3[C@H](O)C[C@@H]4C[C@H](O)CC[C@]4(C)[C@H]3C[C@H](O)[C@]12C , thanks.
result: 7.00 to 7.30

query: Let me know recorded pIC50 for C[C@H](CCC(=O)N1CCC[C@H]1CS(=O)(=O)O)[C@H]1CC[C@H]2[C@@H]3CC[C@@H]4C[C@H](O)CC[C@]4(C)[C@H]3C[C@H](O)[C@]12C , thanks.
result: ≤ 6.70

query: Let me know recorded pIC50 for C[C@H](CCC(=O)NC1(CS(=O)(=O)O)CC1)[C@H]1CC[C@H]2[C@@H]3CC[C@@H]4C[C@H](O)CC[C@]4(C)[C@H]3CC[C@]12C , thanks.
result: ≤ 6.70

query: Let me know recorded pIC50 for C[C@H](CCC(=O)N(CCS(=O)(=O)O)Cc1cccnc1)[C@H]1CC[C@H]2[C@@H]3CC[C@@H]4C[C@H](O)CC[C@]4(C)[C@H]3C[C@H](O)[C@]12C , thanks.
result: 7.00 to 7.30
